- Tested on: streptozotocin-induced diabetic rats
- assay-details: Sucrose-challenged streptozotocin-induced diabetic rats (STZ-S), antihyperglycemic activity
- Format: in vivo, rat (Sprague Dawley)
- measurement-conditions: 100 mg/kg oral; sucrose load 2.5 g/kg; AUC vs control; 24 h
observable: % Fall in blood glucose levels STZ-S 24 h (%)
Dear colleague, please return just the value in %, with no unit written.

Incoming: # query: % Fall in blood glucose levels STZ-S 24 h of entry COc1ccc(/C=C/C(=O)c2ccc(OCC(O)CN3CCN(c4ccccc4OC)CC3)cc2)cc1 (centres unmarked) [Compound 24]
Outgoing: 6.18

Incoming: Next entry: CC(C)(C)NCC(O)COc1ccc(C(=O)/C=C/c2ccc3c(c2)OCO3)cc1 (centres unmarked) [Compound 34]
Outgoing: 23.0
